Reference for the values: the supplement of paper PMC9262897

- Test system: E. coli TESEC Mtb DapB
- experiment: growth (OD600 after 10 h); higher = more growth (less inhibition)
- setup.conditions: arabinose induction (level): High; compound 0.1 mM; raw OD600 reference: median of DMSO wells […], cell-free background 0.041
Counter-ions that a name gives are not always drawn.
Would you kindly list growth for each of these molecules?
Give bare numbers.

Example entries begin here.
[
  {
    "molecule": "Cc1ncc([N+](=O)[O-])n1CC(O)CCl (stereo unspecified) [Ornidazole]",
    "growth": 0.191
  },
  {
    "molecule": "CN1CCc2c(c3ccccc3n2Cc2ccccc2)C1 [Mebhydroline 1,5-naphtalenedisulfonate]",
    "growth": 0.187
  },
  {
    "molecule": "O=C1NCC2(CCN(CCc3ccccc3)CC2)O1 [Fenspiride hydrochloride]",
    "growth": 0.199
  },
  {
    "molecule": "N#CC(c1ccc(Cl)cc1)c1c(Cl)cc(-n2ncc(=O)[nH]c2=O)cc1Cl (stereo unspecified) [Diclazuril]",
    "growth": 0.0518
  },
  {
    "molecule": "CC(C)(C)NCC(O)c1cc(O)cc(O)c1 (stereo unspecified) [Terbutaline hemisulfate]",
    "growth": 0.226
  }
]

// for each molecule in input: emit growth
1. COc1ccc(C(Cl)=C(c2ccc(OC)cc2)c2ccc(OC)cc2)cc1 [Chlorotrianisene]
2. CO[C@H]1C[C@H](O[C@H]2[C@H](C)[C@@H](O[C@@H]3O[C@H](C)C[C@H](N(C)C)[C@H]3OC(C)=O)[C@@H](C)C[C@@]3(CO3)C(=O)[C@H](C)[C@@H](OC(C)=O)[C@@H](C)[C@@H](C)OC(=O)[C@@H]2C)O[C@@H](C)[C@@H]1OC(C)=O [Troleandomycin]
3. CCN(CC)CCNC(=O)COc1ccc(OC)cc1 [Mefexamide hydrochloride]
4. CNC(=C[N+](=O)[O-])NCCSCc1ccc(CN(C)C)o1 [Ranitidine hydrochloride]

1: 0.232; 2: 0.165; 3: 0.225; 4: 0.191

// for each molecule in input: emit growth
1. O=C1O[C@H]([C@@H](O)CO)C(O)=C1O [Ascorbic acid]
2. CN[C@@H]1[C@H](O)[C@H](NC)[C@H]2O[C@@]3(O)C(=O)C[C@@H](C)O[C@H]3O[C@@H]2[C@H]1O [Spectinomycin dihydrochloride]
3. CC(=O)OCC(=O)[C@@]1(O)CC[C@H]2[C@@H]3CCC4=CC(=O)CC[C@]4(C)[C@H]3[C@@H](O)C[C@@]21C [Cortisol acetate]
4. CC#C[C@]1(O)CC[C@H]2[C@@H]3CCC4=CC(=O)CCC4=C3[C@@H](c3ccc(N(C)C)cc3)C[C@@]21C [Mifepristone]
5. NS(=O)(=O)c1cc2c(cc1Cl)N=C(CSCc1ccccc1)NS2(=O)=O [Benzthiazide]

1. 0.187
2. 0.0987
3. 0.213
4. 0.199
5. 0.194

// for each molecule in input: emit growth
1. CCN(CC)CCOC(=O)c1ccc(N)cc1 [Procaine hydrochloride]
2. CC(C)OC(=O)CCC/C=C\C[C@@H]1[C@@H](CC[C@@H](O)CCc2ccccc2)[C@H](O)C[C@@H]1O [Latanoprost]
3. O=c1[nH]c(=O)n(C2CCCO2)cc1F (stereo unspecified) [Tegafur]
4. Fc1ccc([C@@H]2CCNC[C@H]2COc2ccc3c(c2)OCO3)cc1 [Paroxetine Hydrochloride]
5. CCOC(=O)[C@H](CCc1ccccc1)N[C@@H](C)C(=O)N1Cc2ccccc2C[C@H]1C(=O)O [Quinapril HCl]

[0.203, 0.0594, 0.202, 0.172, 0.155]

// for each molecule in input: emit growth
1. CN(C(=O)CN(CCO)CC(=O)N(C)C(C)(C)Cc1ccccc1)C(C)(C)Cc1ccccc1 [Oxethazaine]
2. CC[C@H]1OC(=O)C[C@@H](O)[C@H](C)[C@@H](O[C@@H]2O[C@H](C)[C@@H](O[C@H]3C[C@@](C)(O)[C@@H](O)[C@H](C)O3)[C@H](N(C)C)[C@H]2O)[C@@H](CC=O)C[C@@H](C)C(=O)/C=C/C(C)=C/[C@@H]1CO[C@@H]1O[C@H](C)[C@@H](O)[C@@H](OC)[C@H]1OC [Tylosin]
3. CC[C@H]1OC(=O)[C@H](C)[C@@H](O[C@H]2C[C@@](C)(OC)[C@@H](O)[C@H](C)O2)[C@H](C)[C@@H](O[C@@H]2O[C@H](C)C[C@H](N(C)C)[C@H]2O)[C@](C)(O)C[C@@H](C)[C@@H]2N[C@@H](COCCOC)O[C@H]([C@H]2C)[C@]1(C)O [Dirithromycin]
4. CO[C@H]1/C=C/O[C@@]2(C)Oc3c(C)c(O)c4c(O)c(c(/C=N/N5CCN(C)CC5)c(O)c4c3C2=O)NC(=O)/C(C)=C\C=C\[C@H](C)[C@H](O)[C@@H](C)[C@@H](O)[C@@H](C)[C@H](OC(C)=O)[C@@H]1C [Rifampicin]
5. CN[C@H](CC(C)C)C(=O)N[C@H]1C(=O)N[C@@H](CC(N)=O)C(=O)N[C@H]2C(=O)N[C@H]3C(=O)N[C@H](C(=O)N[C@H](C(=O)O)c4cc(O)cc(O)c4-c4cc3ccc4O)[C@H](O)c3ccc(c(Cl)c3)Oc3cc2cc(c3O[C@@H]2O[C@H](CO)[C@@H](O)[C@H](O)[C@H]2O[C@H]2C[C@](C)(N)[C@H](O)[C@H](C)O2)Oc2ccc(cc2Cl)[C@H]1O [Vancomycin hydrochloride]
6. COc1cc(C(=O)NC2CCCNC2)cc(OC)c1OC (stereo unspecified) [Troxipide]
7. O=C1C(O)=C(O)C(=O)C(O)=C1O [Tetrahydroxy-1,4-quinone hydrate]

[0.187, 0.0739, 0.0519, 0.106, 0.0659, 0.19, 0.206]
